System: Nucleic Acid
Assay: Protection against ferrous and hydrogen peroxide-induced single strand breakage of pBR322 DNA at 50 uM after 30 mins using ethium bromide staining
Details: Escherichia coli
Calls of active or inactive are those of the source. The rule behind the calls is not given here.
Labels: active, inactive

Compound: CC(=O)Oc1c(O)c(-c2ccc(O)cc2)c(OC(=O)CCc2ccccc2)c(O)c1-c1ccc(O)cc1 [CURTISIAN P]
Experimental target: Nucleic Acid
Qualitative label: active

Compound: COc1ccc(O)c(C(C)(C)C)c1.COc1ccc(O)cc1C(C)(C)C [BUTYLATED HYDROXYANISOLE]
Experimental target: Nucleic Acid
Qualitative label: inactive

Compound: CC(=O)O[C@H](C)CC(=O)Oc1c(O)c(-c2ccc(O)cc2)c(OC(=O)CCc2ccccc2)c(O)c1-c1ccc(O)cc1 [CURTISIAN J]
Experimental target: Nucleic Acid
Qualitative label: active

Compound: C[C@@H](O)CC(=O)Oc1c(O)c(-c2ccc(O)cc2)c(OC(=O)CCc2ccccc2)c(O)c1-c1ccc(O)cc1 [CURTISIAN K]
Experimental target: Nucleic Acid
Qualitative label: active

Compound: CC(=O)Oc1c(O)c(-c2ccc(O)cc2)c(OC(C)=O)c(O)c1-c1ccc(O)cc1
Experimental target: Nucleic Acid
Qualitative label: active

Compound: O=C(CCc1ccccc1)Oc1c(O)c(-c2ccc(O)cc2)c(OC(=O)CCc2ccccc2)c(O)c1-c1ccc(O)cc1 [CURTISIAN R]
Experimental target: Nucleic Acid
Qualitative label: active

Compound: CC(=O)O[C@H](C)CC(=O)Oc1c(O)c(-c2ccc(O)cc2)c(OC(=O)C[C@@H](C)OC(C)=O)c(O)c1-c1ccc(O)cc1 [CURTISIAN M]
Experimental target: Nucleic Acid
Qualitative label: active

Compound: CCCC(=O)Oc1c(O)c(-c2ccc(O)cc2)c(OC(=O)CCc2ccccc2)c(O)c1-c1ccc(O)cc1 [CURTISIAN S]
Experimental target: Nucleic Acid
Qualitative label: active

Compound: CC(=O)O[C@H](C)CC(=O)Oc1c(O)c(-c2ccc(O)cc2)c(OC(=O)C[C@@H](C)O)c(O)c1-c1ccc(O)cc1 [CURTISIAN I]
Experimental target: Nucleic Acid
Qualitative label: active

Compound: CC(=O)Oc1c(O)c(-c2ccc(O)cc2)c(OC(=O)C[C@@H](C)O)c(O)c1-c1ccc(O)cc1 [CURTISIAN L]
Experimental target: Nucleic Acid
Qualitative label: active

Compound: CC(=O)Oc1c(OC(=O)C[C@@H](C)O)c(-c2ccc(O)cc2)c(OC(C)=O)c(OC(=O)C[C@@H](C)O)c1-c1ccc(O)cc1 [CURTISIAN U]
Experimental target: Nucleic Acid
Qualitative label: active
